Assay: soluble on expression in E. coli; label from the status in PepcDB or PDB records
parameter.measured: soluble on expression in E. coli

MGSDKIHHHHHHMNIHYYLIINEQASSGNGRKVARKVIQQLKQQELKYTALYTDYAGHEKELTKELAETTLLPWSEDLDVSTFPILVVLGGDGTLHNVINSLLPYDSTIPLSYIPCGSGNDFARGVGLSRNIDKALHQILRTRRPKEIQTIHYVEANQEEIGLATNNVGLGLDAAIVEKTNESSSKKALNKFKLGSLSYISSIIHVFFRQKGFPILVEMNGKQYTFNRAFLCTVTNHPYFGGGVSIMPTANPRKAVVDLVVVERINIFKILWLIFLLLRQKQGKSKHFHHFQSSKIRIVSTIPQTIHADGEILGKRSIDMVYTTQKRLFWF
not soluble
MGSDKIHHHHHHMRPRILLYTGKGGVGKTSIAAATGALLSSKGHKTLIISTDPAHSLGDAFGMEIGHSIKQLADNLYGQEVSVVQSINEHWGELKDYLRSLFLSQGLDPVSADEIATLPGFEEASELLYLRNYYYDEEYDTIIMDSAPTGAALQLLSFPEVMTWYMDKLFPISRKTARVARPLLKPFVDIPLPEDAVFENIDLLYRQLTDIRKILTNNDVTSIRLVTNPDNMSYSETKRAYTYLLLYGYPVDAVIINKILSDETGDFFEKMRGSQKDIITEMENSFVDIKIFKARLLQEEPIGIKKLIELGKLIYGDEDPYKVFYKGTPIKYTKNGDRYILKIKMPFAEKEKLNLFNHGGELTIEIANWKRVFYLPESISDKRPVSAEYSNGYLNVILE
not soluble
MEYRLFGQVTRALMDASQAPADDIATRIDALDWNRKVWSALATDCALPENQLPMELRASIISLSLWVGRHSSAVMRKEEDFEPLIEINRMIMQGLAGRADAA
not soluble

###

Experiment: soluble on expression in E. coli; label from the status in PepcDB or PDB records
parameter.measured: soluble on expression in E. coli

MGHHHHHHSHMEPEAFEICPYDPHHRIPLSRFQYHLASCRRKNPKKAKKMATCKYNACHVVPIKNLEEHEAVCVNRSAVEEEDTENPLKVSPPSSEQNDDTQQVSPCLPSPDIWNVDGANCQHVFVLKTFFPQKVVCENDTKESARETSPQKILRPGQ
not soluble
MKQQEEHNNKIDLLEKQQAQLKSQLETIQKQQTGIISSTKTLTHVIKSVKDQQNTFIFTEFNPAKTKYFILNNGSVALAGRVLSIDATENGSVIHISLVNLLSTPISNIGFNATWGGEKPVDAKEFARWQQLLFNTSMKSTLKLLPGQWQDINLTLKGVSPNNLGYLKLAINMENIQFDNLPSAENRQKRSKK
not soluble
MASISEKMVEALNRQINAEIYSAYLYLSMASYFDSIGLKGFSNWMRVQWQEELMHAMKMFDFVSERGGRVKLYAVEEPPSEWDSPLAAFEHVYEHEVNVTKRIHELVEMAMQEKDFATYNFLQWYVAEQVEEEASALDIVEKLRLIGEDKRALLFLDKELSLRQFTPPAEEEK
soluble
MQEVPPDFEDVHIAEARVDVPSTWRDQIVNTNAVATETHPLKCAEVETQTGSKDNQGTQTDDAGGGRPPSPSKVQASGVADFMAKVEGMVAGELVKATEEHEVLEPFTRAADDEQEPATCIHYLSPFQQDAAANQDLNAT
soluble
